MIC90 overview
system: Fusobacterium mortiferum; assay: Antibacterial activity against Fusobacterium mortiferum by CLSI agar dilution method; type: functional

# Compound, MIC90 (µg/mL)
rows = [
    ("CC1(C)S[C@@H]2[C@H](NC(=O)Cc3ccccc3)C(=O)N2[C@H]1C(=O)O", 1),
    ("C[C@H]1COc2c(N3CCN(C)CC3)c(F)cc3c(=O)c(C(=O)O)cn1c23.C[C@H]1COc2c(N3CCN(C)CC3)c(F)cc3c(=O)c(C(=O)O)cn1c23.O", 4),
    ("C[C@@H](O)[C@H]1C(=O)N2C(C(=O)O)=C(S[C@@H]3CN[C@H](CNS(N)(=O)=O)C3)[C@H](C)[C@H]12", 0.25),
    ("Cc1ncc([N+](=O)[O-])n1CCO", 1),
    ("CCN1CCN(C(=O)N[C@@H](C(=O)N[C@@H]2C(=O)N3[C@@H]2SC(C)(C)[C@@H]3C(=O)O)c2ccccc2)C(=O)C1=O", 8),
    ("C[C@@H](O)[C@H]1C(=O)N2C(C(=O)O)=C(SCCNC=N)C[C@H]12 [IMIPENEM ANHYDROUS]", 4),
    ("CO[C@@]1(NC(=O)CSCC#N)C(=O)N2C(C(=O)O)=C(CSc3nnnn3C)CS[C@@H]21", 2),
]

###

tested on: Prevotella melaninogenica; experiment: Antibacterial activity against Prevotella melaninogenica assessed as susceptible isolates by CLSI agar dilution method; format: functional

# Molecule, Test system, Display unit, Activity
records = [
    ("C[C@@H](O)[C@H]1C(=O)N2C(C(=O)O)=C(S[C@@H]3CN[C@H](C(=O)Nc4cccc(C(=O)O)c4)C3)[C@H](C)[C@H]12", "Prevotella melaninogenica", "%", 100),
    ("CCC[C@@H]1C[C@@H](C(=O)N[C@@H]([C@H]2O[C@H](SC)[C@H](O)[C@@H](O)[C@H]2O)[C@H](C)Cl)N(C)C1", "Prevotella melaninogenica", "%", 69),
    ("CCN1CCN(C(=O)N[C@@H](C(=O)N[C@@H]2C(=O)N3[C@@H]2SC(C)(C)[C@@H]3C(=O)O)c2ccccc2)C(=O)C1=O", "Prevotella melaninogenica", "%", 71),
    ("CC1(C)S[C@@H]2[C@H](NC(=O)Cc3ccccc3)C(=O)N2[C@H]1C(=O)O", "Prevotella melaninogenica", "%", 6),
    ("C[C@@H](O)[C@H]1C(=O)N2C(C(=O)O)=C(SCCNC=N)C[C@H]12 [IMIPENEM ANHYDROUS]", "Prevotella melaninogenica", "%", 94),
    ("O=C(N[C@H](CO)[C@H](O)c1ccc([N+](=O)[O-])cc1)C(Cl)Cl", "Prevotella melaninogenica", "%", 100),
    ("C[C@@H](O)[C@H]1C(=O)N2C(C(=O)O)=C(S[C@@H]3CN[C@H](C(=O)N(C)C)C3)[C@H](C)[C@H]12", "Prevotella melaninogenica", "%", 100),
    ("Cc1ncc([N+](=O)[O-])n1CCO", "Prevotella melaninogenica", "%", 94),
    ("CO[C@@]1(NC(=O)CSCC#N)C(=O)N2C(C(=O)O)=C(CSc3nnnn3C)CS[C@@H]21", "Prevotella melaninogenica", "%", 94),
    ("C[C@@H](O)[C@H]1C(=O)N2C(C(=O)O)=C(S[C@@H]3CN[C@H](CNS(N)(=O)=O)C3)[C@H](C)[C@H]12", "Prevotella melaninogenica", "%", 100),
]

###

tested on: Fusobacterium necrophorum; test: Antibacterial activity against Fusobacterium necrophorum by CLSI agar dilution method; assay type: functional
Measured metric: MIC50 (µg/mL)

# Smiles data, Measured metric, Result value
records = [
    ("CC1(C)S[C@@H]2[C@H](NC(=O)Cc3ccccc3)C(=O)N2[C@H]1C(=O)O", "MIC50", 0.25),
    ("C[C@@H](O)[C@H]1C(=O)N2C(C(=O)O)=C(S[C@@H]3CN[C@H](C(=O)Nc4cccc(C(=O)O)c4)C3)[C@H](C)[C@H]12", "MIC50", 0.06),
    ("Cc1ncc([N+](=O)[O-])n1CCO", "MIC50", 0.5),
    ("CCN1CCN(C(=O)N[C@@H](C(=O)N[C@@H]2C(=O)N3[C@@H]2SC(C)(C)[C@@H]3C(=O)O)c2ccccc2)C(=O)C1=O", "MIC50", 2),
    ("C[C@@H](O)[C@H]1C(=O)N2C(C(=O)O)=C(S[C@@H]3CN[C@H](CNS(N)(=O)=O)C3)[C@H](C)[C@H]12", "MIC50", 0.12),
    ("C[C@H]1COc2c(N3CCN(C)CC3)c(F)cc3c(=O)c(C(=O)O)cn1c23.C[C@H]1COc2c(N3CCN(C)CC3)c(F)cc3c(=O)c(C(=O)O)cn1c23.O", "MIC50", 2),
    ("CO[C@@]1(NC(=O)CSCC#N)C(=O)N2C(C(=O)O)=C(CSc3nnnn3C)CS[C@@H]21", "MIC50", 1),
]

###

test system: Phocaeicola vulgatus; experiment: Antibacterial activity against beta-lactamase producing Bacteroides vulgatus assessed as resistant isolates by CLSI agar dilution method; assay type: functional

# Compound, Display unit, Activity
data = [
    ("C[C@@H](O)[C@H]1C(=O)N2C(C(=O)O)=C(SCCNC=N)C[C@H]12 [IMIPENEM ANHYDROUS]", "%", 4),
    ("Cc1ncc([N+](=O)[O-])n1CCO", "%", 0),
    ("C[C@@H](O)[C@H]1C(=O)N2C(C(=O)O)=C(S[C@@H]3CN[C@H](C(=O)Nc4cccc(C(=O)O)c4)C3)[C@H](C)[C@H]12", "%", 4),
    ("CO[C@@]1(NC(=O)CSCC#N)C(=O)N2C(C(=O)O)=C(CSc3nnnn3C)CS[C@@H]21", "%", 30),
    ("O=C(N[C@H](CO)[C@H](O)c1ccc([N+](=O)[O-])cc1)C(Cl)Cl", "%", 4),
    ("CCN1CCN(C(=O)N[C@@H](C(=O)N[C@@H]2C(=O)N3[C@@H]2SC(C)(C)[C@@H]3C(=O)O)c2ccccc2)C(=O)C1=O", "%", 65),
    ("C[C@@H](O)[C@H]1C(=O)N2C(C(=O)O)=C(S[C@@H]3CN[C@H](C(=O)N(C)C)C3)[C@H](C)[C@H]12", "%", 4),
]

###

test system: Peptostreptococcus anaerobius; assay: Antibacterial activity against beta-lactamase producing Peptostreptococcus anaerobius assessed as resistant isolates by CLSI agar dilution method; assay type: functional
Measured metric: Activity (%)

# Molecule, Result value
measured = [
    ("CO[C@@]1(NC(=O)CSCC#N)C(=O)N2C(C(=O)O)=C(CSc3nnnn3C)CS[C@@H]21 [CEFMETAZOLE]", 0),
    ("C[C@@H](O)[C@H]1C(=O)N2C(C(=O)O)=C(S[C@@H]3CN[C@H](C(=O)N(C)C)C3)[C@H](C)[C@H]12 [MEROPENEM]", 0),
    ("CCN1CCN(C(=O)N[C@@H](C(=O)N[C@@H]2C(=O)N3[C@@H]2SC(C)(C)[C@@H]3C(=O)O)c2ccccc2)C(=O)C1=O [PIPERACILLIN]", 3),
    ("CCC[C@@H]1C[C@@H](C(=O)N[C@@H]([C@H]2O[C@H](SC)[C@H](O)[C@@H](O)[C@H]2O)[C@H](C)Cl)N(C)C1 [CLINDAMYCIN]", 9),
    ("C[C@@H](O)[C@H]1C(=O)N2C(C(=O)O)=C(S[C@@H]3CN[C@H](C(=O)Nc4cccc(C(=O)O)c4)C3)[C@H](C)[C@H]12", 0),
    ("O=C(N[C@H](CO)[C@H](O)c1ccc([N+](=O)[O-])cc1)C(Cl)Cl [CHLORAMPHENICOL]", 6),
]

###

system: Fusobacterium necrophorum; test: Antibacterial activity against Fusobacterium necrophorum assessed as susceptible isolates by CLSI agar dilution method; format: functional
Activity overview
Measured metric: Activity

# Compound, Measured metric, Result value
measured = [
    ("C[C@@H](O)[C@H]1C(=O)N2C(C(=O)O)=C(S[C@@H]3CN[C@H](CNS(N)(=O)=O)C3)[C@H](C)[C@H]12 [DORIPENEM]", "Activity", "100%"),
    ("C[C@@H](O)[C@H]1C(=O)N2C(C(=O)O)=C(S[C@@H]3CN[C@H](C(=O)N(C)C)C3)[C@H](C)[C@H]12 [MEROPENEM]", "Activity", "92%"),
    ("CCC[C@@H]1C[C@@H](C(=O)N[C@@H]([C@H]2O[C@H](SC)[C@H](O)[C@@H](O)[C@H]2O)[C@H](C)Cl)N(C)C1 [CLINDAMYCIN]", "Activity", "85%"),
]
